# test: Pharmacokinetics of the compounds in SD rats (Example 36)
# Assay type: in vivo
# test-conditions: Intravenous injection administration - 1 mg/kg; SD rat plasma
# Description: Preparation of compound stock solution: An appropriate amount of compound solid powder was be weighed and added in a certain amount of DMSO, and vortex ultrasound to obtain a 10 mg/mL stock solution. […] Non-compartmental model-related parameters were calculated by WinNonlin® Professional software.
Where a name gives a salt, the structure may show the parent alone.
readout-name: Tmax (min)

Here's what some known entries look like.
[[record]]
compound = "CCOC(=O)OC(C)OC(=O)c1ccnc(-c2ccc3c(c2)c(C#N)nn3C(C)C)c1 (stereo not drawn)"
val = 4.98

[[record]]
compound = "COC(=O)c1cnn(-c2ccc3c(c2)c(C#N)nn3C(C)C)c1"
val = 15

[[record]]
compound = "CCOC(=O)c1cnn(-c2ccc3c(c2)c(C#N)nn3C(C)C)c1"
val = 8.34

[[record]]
compound = "CC(C)OC(=O)c1cnn(-c2ccc3c(c2)c(C#N)nn3C(C)C)c1"
val = 11.6

[[record]]
compound = "CC(C)n1nc(C#N)c2cc(-c3cc(C(=O)Oc4cccc(CO[N+](=O)[O-])c4)ccn3)ccc21"
val = 4.98

[[record]]
compound = "CC(C)n1nc(C#N)c2cc(-c3cc(C(=O)OCCCCO[N+](=O)[O-])ccn3)ccc21"
val = 4.98

[[record]]
compound = "CC(=O)OCCOC(=O)c1ccnc(-c2ccc3c(c2)c(C#N)nn3C(C)C)c1"
val = 4.98


[A] COCCOC(=O)c1ccnc(-c2ccc3c(c2)c(C#N)nn3C(C)C)c1 [Compound 31, hydrobromide]
[B] COC(=O)c1ccnc(-c2ccc3c(c2)c(C#N)nn3C(C)C)c1
// query Select one: A or B . Criterion: greater recorded Tmax. Reply briefly: the label of your chosen item.
// result B
(B: 15 min, A: 4.98 min)
